- Tested on: K-562 leukemia
- Experiment: NCI tumour cell line growth inhibition, 48 h
Property: TGI

Consider the compound `COc1cc(N(CCC#N)CCC#N)ccc1/C(N=Nc1cccc([N+](=O)[O-])c1)=N\NC(=O)c1ccc(C)cc1` and give its measured TGI.
> 100 µM

Quick one: TGI for `COc1ccc(-c2cc(-c3ccc(Cl)cc3)c(C#N)c(=O)n2CCCCCC(=O)Nc2ccccc2N)cc1` ?
> 100 µM

Which TGI reading was recorded for the compound CC12CCC(C(=Nc3ccc([N+](=O)[O-])cc3)C1=O)C2(C)C (centres undefined) ?
55.2 µM

Look at this compound and give its reported TGI. `C=C1C(=O)O[C@H]2[C@@H]3O[C@@](C)(CC/C=C(\C)CCC[C@@H]2C)[C@H](O)C[C@@H]13`
> 100 µM
